# tgt: T1, 4H340-AA
# T1 chain: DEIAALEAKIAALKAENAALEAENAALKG
# assay_explanation: two-hybrid library CCmax;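 also: natural log of median RNA to DNA barcode read ratio; higher means stronger binding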
# details: mean of both orientations
measured_metric: interaction score
Answer field: number only, no words.

Below, each entry is followed by its recorded interaction score result.
DENAALKAEIAALKAENAALKAKIAALEG [4H1629-AA] : -1.67
DEIAALEAEIAALEAENAALKAKNAALKG [4H32-AA] : 1.89
DKNAALEAEIAALEAKNAALKAKIAALEG [4H3133-AA] : -0.539

Lab note: DENAALEAKIAALKAKIAALKAENAALKG [4H1388-AA] gave interaction score of -0.251
